# assay.protocol: activity coefficient (dimensionless); of the first substance listed, at infinite dilution; xn = mol fraction of the nth substance listed
# settings: 348.15 K; 101 kPa; Liquid; Chromatography; x1 = 0
measure: activity coefficient
Give only the figure.

{"compound": "CCC(C)CC [3-methylpentane] + CCCCCC[n+]1ccc2ccccc2c1.N#C[S-]", "measure": "activity coefficient", "reported.value": 27.9}
{"compound": "CCCCCCCCCC [decane] + CCCCCC[n+]1ccc2ccccc2c1.N#C[S-]", "measure": "activity coefficient", "reported.value": 78.4}

input: Report activity coefficient for c1ccncc1 [pyridine] + CCCCCC[n+]1ccc2ccccc2c1.N#C[S-] please.
output: 0.722

input: Report activity coefficient for Cc1ccccc1 [toluene] + CCCCCC[n+]1ccc2ccccc2c1.N#C[S-] please.
output: 2.08

input: Report activity coefficient for C#CCCCC [1-hexyne] + CCCCCC[n+]1ccc2ccccc2c1.N#C[S-] please.
output: 3.83

input: Report activity coefficient for Cc1ccc(C)cc1 [1,4-dimethylbenzene] + CCCCCC[n+]1ccc2ccccc2c1.N#C[S-] please.
output: 2.88

input: Report activity coefficient for CCOCC [diethyl ether] + CCCCCC[n+]1ccc2ccccc2c1.N#C[S-] please.
output: 6.15

###

// activity coefficient lookup, one value per entry
# assay.protocol: activity coefficient (dimensionless); of the first substance listed, at infinite dilution; xn = mol fraction of the nth substance listed
# settings: 308.15 K; 101 kPa; Liquid; Chromatography; x1 = 0
Give only the figure.

For orientation, consider the following solved cases.
{"compound": "CC(C)CC(C)(C)C [2,2,4-trimethylpentane] + CCCCCC[n+]1ccc2ccccc2c1.N#C[S-]", "reported.value": 96.5}
{"compound": "CCCCCCCCCC [decane] + CCCCCC[n+]1ccc2ccccc2c1.N#C[S-]", "reported.value": 105}

Attention now shifts to the item below.
input: Report activity coefficient for CCOCC [diethyl ether] + CCCCCC[n+]1ccc2ccccc2c1.N#C[S-] please.
output: 7.48

###

// activity coefficient lookup, one value per entry
# assay.protocol: activity coefficient (dimensionless); of the first substance listed, at infinite dilution; xn = mol fraction of the nth substance listed
# settings: 368.15 K; 101 kPa; Liquid; Chromatography; x1 = 0
Give only the figure.

For orientation, consider the following solved cases.
{"compound": "C1CCCCC1 [cyclohexane] + CCCCCC[n+]1ccc2ccccc2c1.N#C[S-]", "measure": "activity coefficient", "reported.value": 10.2}
{"compound": "Cc1ccccc1C [1,2-dimethylbenzene] + CCCCCC[n+]1ccc2ccccc2c1.N#C[S-]", "measure": "activity coefficient", "reported.value": 2.45}
{"compound": "CCO [ethanol] + CCCCCC[n+]1ccc2ccccc2c1.N#C[S-]", "measure": "activity coefficient", "reported.value": 0.566}
{"compound": "CCC(C)CC [3-methylpentane] + CCCCCC[n+]1ccc2ccccc2c1.N#C[S-]", "measure": "activity coefficient", "reported.value": 21.5}
{"compound": "C=CCCCCC [1-heptene] + CCCCCC[n+]1ccc2ccccc2c1.N#C[S-]", "measure": "activity coefficient", "reported.value": 16.9}

input: Report activity coefficient for Cc1ccccc1 [toluene] + CCCCCC[n+]1ccc2ccccc2c1.N#C[S-] please.
output: 2.11

input: Report activity coefficient for CO [methanol] + CCCCCC[n+]1ccc2ccccc2c1.N#C[S-] please.
output: 0.37

input: Report activity coefficient for COC(C)(C)C [2-methoxy-2-methylpropane] + CCCCCC[n+]1ccc2ccccc2c1.N#C[S-] please.
output: 6.28

input: Report activity coefficient for CC1CCCCC1 [methylcyclohexane] + CCCCCC[n+]1ccc2ccccc2c1.N#C[S-] please.
output: 14

input: Report activity coefficient for CCCCC(C)=O [2-hexanone] + CCCCCC[n+]1ccc2ccccc2c1.N#C[S-] please.
output: 2.65

input: Report activity coefficient for C=CCCCC [hex-1-ene] + CCCCCC[n+]1ccc2ccccc2c1.N#C[S-] please.
output: 12.3

input: Report activity coefficient for C#CCCCCC [1-heptyne] + CCCCCC[n+]1ccc2ccccc2c1.N#C[S-] please.
output: 5.21
